Ref: patent US20250215012A1

- assayed.target: IKZF2 (Homo sapiens (Human), UniProt Q96SW2+Q9UKS7)
- Sequence (Q9UKS7 whole entry): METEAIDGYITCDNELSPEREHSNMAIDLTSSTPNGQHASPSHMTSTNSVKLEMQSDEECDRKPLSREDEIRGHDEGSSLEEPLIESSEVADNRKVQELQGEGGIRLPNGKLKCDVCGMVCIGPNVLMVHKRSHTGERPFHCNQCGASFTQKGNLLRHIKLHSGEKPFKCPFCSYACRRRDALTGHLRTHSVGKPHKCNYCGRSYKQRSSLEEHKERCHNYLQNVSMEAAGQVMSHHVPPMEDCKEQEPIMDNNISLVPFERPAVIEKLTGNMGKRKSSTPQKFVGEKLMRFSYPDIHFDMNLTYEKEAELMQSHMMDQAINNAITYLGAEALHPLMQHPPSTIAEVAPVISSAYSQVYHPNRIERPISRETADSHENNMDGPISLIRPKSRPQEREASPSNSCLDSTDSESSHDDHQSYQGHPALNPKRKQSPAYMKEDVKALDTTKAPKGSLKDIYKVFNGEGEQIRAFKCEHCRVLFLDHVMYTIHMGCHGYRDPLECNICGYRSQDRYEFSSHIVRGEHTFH
- Sequence (Q96SW2 whole entry): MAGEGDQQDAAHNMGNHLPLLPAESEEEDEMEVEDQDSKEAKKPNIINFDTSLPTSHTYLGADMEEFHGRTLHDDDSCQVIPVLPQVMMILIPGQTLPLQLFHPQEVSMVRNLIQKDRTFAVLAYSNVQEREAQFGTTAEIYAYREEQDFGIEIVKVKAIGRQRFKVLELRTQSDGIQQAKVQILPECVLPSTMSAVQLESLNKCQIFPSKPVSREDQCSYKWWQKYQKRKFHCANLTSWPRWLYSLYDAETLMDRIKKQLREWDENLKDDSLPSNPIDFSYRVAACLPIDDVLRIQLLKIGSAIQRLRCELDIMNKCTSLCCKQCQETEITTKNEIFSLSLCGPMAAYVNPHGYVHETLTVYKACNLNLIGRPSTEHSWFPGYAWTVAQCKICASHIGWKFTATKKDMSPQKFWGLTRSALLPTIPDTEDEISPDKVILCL
- Sequence (Q16531 whole entry partner): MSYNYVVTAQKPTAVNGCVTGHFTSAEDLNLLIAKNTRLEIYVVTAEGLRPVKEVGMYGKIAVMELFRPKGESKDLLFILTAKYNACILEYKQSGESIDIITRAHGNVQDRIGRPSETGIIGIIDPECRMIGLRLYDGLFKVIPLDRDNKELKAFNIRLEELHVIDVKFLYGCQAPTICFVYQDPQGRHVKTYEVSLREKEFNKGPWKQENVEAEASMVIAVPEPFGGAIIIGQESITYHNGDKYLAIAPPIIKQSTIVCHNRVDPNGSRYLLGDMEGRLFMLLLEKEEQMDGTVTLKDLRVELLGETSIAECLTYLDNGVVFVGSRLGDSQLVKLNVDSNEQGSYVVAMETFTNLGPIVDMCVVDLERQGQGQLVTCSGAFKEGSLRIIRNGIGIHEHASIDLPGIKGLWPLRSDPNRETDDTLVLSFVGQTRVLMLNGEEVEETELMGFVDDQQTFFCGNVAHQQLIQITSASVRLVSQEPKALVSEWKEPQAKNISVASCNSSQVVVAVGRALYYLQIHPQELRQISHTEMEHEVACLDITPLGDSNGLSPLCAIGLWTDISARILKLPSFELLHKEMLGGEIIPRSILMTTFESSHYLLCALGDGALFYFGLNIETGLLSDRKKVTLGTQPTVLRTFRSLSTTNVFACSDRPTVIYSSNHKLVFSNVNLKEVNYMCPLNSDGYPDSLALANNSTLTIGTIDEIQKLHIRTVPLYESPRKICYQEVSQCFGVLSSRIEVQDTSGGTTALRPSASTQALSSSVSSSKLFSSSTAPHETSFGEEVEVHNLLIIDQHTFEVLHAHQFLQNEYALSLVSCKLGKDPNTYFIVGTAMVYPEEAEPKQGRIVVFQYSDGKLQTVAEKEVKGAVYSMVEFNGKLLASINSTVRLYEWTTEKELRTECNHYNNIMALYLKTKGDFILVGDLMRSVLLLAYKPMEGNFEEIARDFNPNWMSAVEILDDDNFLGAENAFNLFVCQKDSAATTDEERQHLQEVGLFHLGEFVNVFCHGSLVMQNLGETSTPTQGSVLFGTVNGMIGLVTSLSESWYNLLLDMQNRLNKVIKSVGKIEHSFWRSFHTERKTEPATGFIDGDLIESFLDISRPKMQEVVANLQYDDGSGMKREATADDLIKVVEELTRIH
- measurement.notes: IKZF2 HiBit Assay (HEK293T Flp-in-HiBiT cells)
- Format: cell-based
- condition.label: HEK293T Flp-in-HiBiT cells, 6 hrs; read-out: IKZF2 HiBit degradation DC50
Listed below: DC50 values for each entry.

compound: Cn1ncc2cccc(CN3CCC4(COc5c4ccc4c5CN([C@H]5CCC(=O)NC5=O)C4=O)C(F)(F)C3)c21 (stereo partly drawn)
DC50: 1 to 10 nM

compound: Cn1cc(-c2cccc(CN3CCC4(CC3)COc3c4cc(F)c4c3CN([C@H]3CCC(=O)NC3=O)C4=O)c2)cn1
DC50: 1 to 10 nM

compound: [2H]C([2H])([2H])n1cc(-c2cccc(CN3CCC4(CC3)COc3c4ccc4c3CN([C@H]3CCC(=O)NC3=O)C4=O)c2)cn1
DC50: 1 to 10 nM

compound: [2H]C([2H])(c1cccc(-c2cnn(C)c2)c1)N1CCC2(COc3c2ccc2c3CN([C@H]3CCC(=O)NC3=O)C2=O)C(F)(F)C1 (stereo partly drawn)
DC50: 1 to 10 nM

compound: N#Cc1ccc(-n2cc(CN3CCC4(CC3)CNc3c4ccc4c3CN([C@H]3CCC(=O)NC3=O)C4=O)cn2)cc1
DC50: 1 to 10 nM

compound: O=C1CC[C@H](N2Cc3c4c(cc(Cl)c3C2=O)C2(CCN(Cc3ccccc3)CC2)CO4)C(=O)N1
DC50: > 1000 nM
